# targetSystem: 5-HT2B receptor (Homo sapiens, UniProt P41595)
# Construct: host or cells: CHO-K1
# Sequence (P41595 whole entry): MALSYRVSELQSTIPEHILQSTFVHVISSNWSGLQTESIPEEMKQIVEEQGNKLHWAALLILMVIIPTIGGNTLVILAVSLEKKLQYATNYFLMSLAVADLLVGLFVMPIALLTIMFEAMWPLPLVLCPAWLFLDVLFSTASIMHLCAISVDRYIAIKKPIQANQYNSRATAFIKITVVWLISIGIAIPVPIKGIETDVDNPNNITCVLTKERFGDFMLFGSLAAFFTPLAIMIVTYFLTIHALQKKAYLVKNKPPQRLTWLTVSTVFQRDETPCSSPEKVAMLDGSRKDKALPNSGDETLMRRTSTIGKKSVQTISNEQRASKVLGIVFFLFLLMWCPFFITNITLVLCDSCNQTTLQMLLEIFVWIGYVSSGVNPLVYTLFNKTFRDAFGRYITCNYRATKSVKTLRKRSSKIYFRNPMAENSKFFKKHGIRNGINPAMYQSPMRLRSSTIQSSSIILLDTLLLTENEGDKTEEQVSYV
# methodNotes: cell-based
# testContext: agonist activity, Ca2+ flux, CHO-K1 cells
assayEndpoint: Emax (%)

- chemSmiles: "COc1ccc2[nH]cc(CCN(C)C)c2c1C"
  targetSystem: "5-HT2B receptor (Homo sapiens, UniProt P41595)"
  assayEndpoint: "Emax"
  reading: 11.3
- chemSmiles: "CCN(C)CCc1c[nH]c2ccc(C)c(O)c12"
  targetSystem: "5-HT2B receptor (Homo sapiens, UniProt P41595)"
  assayEndpoint: "Emax"
  reading: 2.42
- chemSmiles: "CCN(C)CCc1c[nH]c2c(C)ccc(OC)c12"
  targetSystem: "5-HT2B receptor (Homo sapiens, UniProt P41595)"
  assayEndpoint: "Emax"
  reading: 0.74
- chemSmiles: "CN(C)CCc1c[nH]c2ccc3oc(=O)[nH]c3c12"
  targetSystem: "5-HT2B receptor (Homo sapiens, UniProt P41595)"
  assayEndpoint: "Emax"
  reading: 42.5
- chemSmiles: "COc1c(F)ccc2[nH]cc(CCN(C)C)c12"
  targetSystem: "5-HT2B receptor (Homo sapiens, UniProt P41595)"
  assayEndpoint: "Emax"
  reading: 4.57
- chemSmiles: "CCN(C)CCc1c[nH]c2ccc3oc(C)nc3c12"
  targetSystem: "5-HT2B receptor (Homo sapiens, UniProt P41595)"
  assayEndpoint: "Emax"
  reading: 11.4
- chemSmiles: "CCN(CC)CCc1c[nH]c2ccc(C)c(OC)c12"
  targetSystem: "5-HT2B receptor (Homo sapiens, UniProt P41595)"
  assayEndpoint: "Emax"
  reading: 46.3
- chemSmiles: "CCN(C)CCc1c[nH]c2cc(F)c(F)cc12"
  targetSystem: "5-HT2B receptor (Homo sapiens, UniProt P41595)"
  assayEndpoint: "Emax"
  reading: 17.6
- chemSmiles: "Cc1nc2c(ccc3[nH]cc(CCN(C)C)c32)o1"
  targetSystem: "5-HT2B receptor (Homo sapiens, UniProt P41595)"
  assayEndpoint: "Emax"
  reading: 3.93
- chemSmiles: "CC(C)N(C)CCc1c[nH]c2cc(F)c(F)cc12"
  targetSystem: "5-HT2B receptor (Homo sapiens, UniProt P41595)"
  assayEndpoint: "Emax"
  reading: 45.4
- chemSmiles: "CCN(CC)CCc1c[nH]c2ccc(F)c(F)c12"
  targetSystem: "5-HT2B receptor (Homo sapiens, UniProt P41595)"
  assayEndpoint: "Emax"
  reading: 51.5
- chemSmiles: "CN(C)CCc1c[nH]c2cc(F)cc(F)c12"
  targetSystem: "5-HT2B receptor (Homo sapiens, UniProt P41595)"
  assayEndpoint: "Emax"
  reading: 15.3
- chemSmiles: "CCN(CC)CCc1c[nH]c2cc(F)cc(OC)c12"
  targetSystem: "5-HT2B receptor (Homo sapiens, UniProt P41595)"
  assayEndpoint: "Emax"
  reading: 63.6
- chemSmiles: "CCCN(CC)CCc1c[nH]c2c(C)cc(OC)cc12"
  targetSystem: "5-HT2B receptor (Homo sapiens, UniProt P41595)"
  assayEndpoint: "Emax"
  reading: 13.2
